Test: Growth inhibition of chinese hamster CHOK1 cells after 48 hrs by sulforhodamine B assay
Format: cell-based, Cricetulus griseus
Settings: CHO-K1 cells
Mark 1 only for GI50 at 48 h values smaller than 30 µM; exact matches and larger values are 0.

                                   molecule  class
0  C=CC(C)(C)c1cc(O)c(C(O)C(O)C(C)(C)O)cc1O (stereo not given) [COMOSUSOL D]      0
1  CC(C)=CCC1(CC=C(C)C)C[C@@H](O)C=CC1=O [COMOSONE A]      1
2  C=CC(C)(C)c1cc(O)c(/C=C\C(C)(C)O)cc1O [COMOSUSOL B]      1
3           C=CC(C)(C)c1ccc(O)c(CC=C(C)C)c1      1
4  CC(C)=CCc1cc(O)cc(/C=C\C(C)(C)O)c1O [COMOSUSOL A]      0

----------
Assay: Growth inhibition of chinese hamster CHOK1 cells after 48 hrs by sulforhodamine B assay
Assay type: cell-based, Cricetulus griseus
Conditions: CHO-K1 cells
value_type: GI50 at 48 h (µM)

>>> print(df.to_string())
                                 smiles_str  result_unit  relation_operator  result_number
0          C=CC(C)(C)c1cc(O)c(CC=C(C)C)cc1O           µM                  =             27
1  CC(=O)O[C@H]1CC(C)(C)C(=C=C/C(C)=C/C=C/C(C)=C/C=C/C=C(C)/C=C/C=C(\C)C(=O)C[C@@]23O[C@]2(C)C[C@@H](O)CC3(C)C)[C@](C)(O)C1           µM                  =             12
2    OC[C@@H](O)[C@H](O)[C@H](O)[C@@H](O)CO           µM                  >            220
3      C=CC(C)(C)C1=CC(=O)C(CC=C(C)C)=CC1=O           µM                  =             17
